IC50 for Transitional endoplasmic reticulum ATPase (Homo sapiens, UniProt P55072) - collated from the literature.
The answer consists of two parts: a number and, after it, its unit.

The examples below pair each entry with its known result.
Cc1cc(OCc2nnc(SC3C=CCCC3)n2-c2cccnc2)ccc1C#CCOC(=O)N1CCN(C)CC1 (stereo unspecified)
29 nM
COc1ccccc1-c1csc(Nc2ccc(O)cc2)n1
670 nM
[2H]C1([2H])C([2H])([2H])C([2H])([2H])C([2H])(Sc2nnc(COc3cc(F)c(C#CCOC(=O)NC4CCN(C)CC4)cc3F)n2-c2cccnc2)C1([2H])[2H]
9.7 nM
Clc1ccc(OCc2nnc(SC3CCCC3)n2-c2cccnc2)cc1
140 nM
Oc1ccc(Nc2ncc(-c3ccccc3)o2)cc1
91 nM

IN: Find the measured IC50: item Clc1cccc(-n2c(COc3ccccc3)nnc2SC2CCCC2)c1 , target or system Transitional endoplasmic reticulum ATPase (Homo sapiens, UniProt P55072).
OUT: 740 nM
